Recorded measurements of IC50, one per entry
system-name: Phospho-EGFR (Tyr1068) in A431 cells (Homo sapiens, UniProt P00533)
Construct: endogenous in cells; host or cells: A431
Sequence (P00533 25-1210): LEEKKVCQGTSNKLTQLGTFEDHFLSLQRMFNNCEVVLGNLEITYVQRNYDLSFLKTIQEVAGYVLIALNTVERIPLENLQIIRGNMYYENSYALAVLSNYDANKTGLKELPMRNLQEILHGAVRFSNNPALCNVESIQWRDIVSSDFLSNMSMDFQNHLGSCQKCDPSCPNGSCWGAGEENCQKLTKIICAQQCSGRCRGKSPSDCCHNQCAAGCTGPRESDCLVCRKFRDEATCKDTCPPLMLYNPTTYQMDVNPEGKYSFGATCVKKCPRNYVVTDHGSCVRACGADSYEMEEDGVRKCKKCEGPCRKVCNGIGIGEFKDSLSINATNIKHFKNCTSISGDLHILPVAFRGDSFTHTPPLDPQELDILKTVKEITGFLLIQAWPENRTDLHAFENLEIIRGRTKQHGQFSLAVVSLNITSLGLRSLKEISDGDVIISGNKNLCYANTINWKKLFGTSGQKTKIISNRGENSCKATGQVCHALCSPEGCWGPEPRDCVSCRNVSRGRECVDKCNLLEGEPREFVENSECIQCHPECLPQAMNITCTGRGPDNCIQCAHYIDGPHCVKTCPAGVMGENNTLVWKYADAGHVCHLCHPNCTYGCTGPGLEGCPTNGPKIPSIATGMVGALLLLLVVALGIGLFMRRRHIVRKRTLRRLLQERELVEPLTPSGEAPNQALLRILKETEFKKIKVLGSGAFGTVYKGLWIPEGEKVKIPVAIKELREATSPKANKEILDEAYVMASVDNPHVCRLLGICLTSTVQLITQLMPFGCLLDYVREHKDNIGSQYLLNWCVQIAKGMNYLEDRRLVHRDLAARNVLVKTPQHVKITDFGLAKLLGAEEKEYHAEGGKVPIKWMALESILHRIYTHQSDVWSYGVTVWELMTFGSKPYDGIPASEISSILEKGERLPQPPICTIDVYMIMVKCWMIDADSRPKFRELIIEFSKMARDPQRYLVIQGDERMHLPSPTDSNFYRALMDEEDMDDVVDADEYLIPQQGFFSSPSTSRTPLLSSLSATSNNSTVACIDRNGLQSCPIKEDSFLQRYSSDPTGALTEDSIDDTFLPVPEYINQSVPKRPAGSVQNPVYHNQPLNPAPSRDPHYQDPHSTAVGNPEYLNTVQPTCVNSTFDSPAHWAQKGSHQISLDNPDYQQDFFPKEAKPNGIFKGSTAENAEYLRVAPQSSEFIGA
experiment-summary: HTRF pEGFR/total EGFR assay in A431 cells (EGF stimulated)
Type: cell-based
assay-setup: compound 2.5 hours then 100 ng/ml EGF 30 mins, ratio pEGFR/total EGFR
Protocol: Cells were plated at 20,000 cells per well in 96 well plates and placed at 37° C. 5% CO2. Once adhered (after 24h) cells were treated with compounds dissolved in DMSO at a final concentration of 0.1% DMSO in media. […] Fluorescence emission was read at two different wavelengths (665 nm and 620 nm) on a PheraStar. Results were calculated as ratio of pEGFR/total EGFR and then percentage of OuM control.

Exercise: Reported IC50 for C#Cc1cc(NC(=O)NCC2CCOC2)nc2nc(Nc3ccc(N4CCN(C)CC4)cc3)ncc12 (stereo not drawn) [Example 51] : what is it?
Key: > 3 µM

* * *

system-name: CtermHisTag-mEGFR Triple Mutant - C797S, L858R, T790M (Homo sapiens, UniProt P00533, C797S/L858R/T790M)
Sequence (P00533 25-1210 T790M/C797S/L858R): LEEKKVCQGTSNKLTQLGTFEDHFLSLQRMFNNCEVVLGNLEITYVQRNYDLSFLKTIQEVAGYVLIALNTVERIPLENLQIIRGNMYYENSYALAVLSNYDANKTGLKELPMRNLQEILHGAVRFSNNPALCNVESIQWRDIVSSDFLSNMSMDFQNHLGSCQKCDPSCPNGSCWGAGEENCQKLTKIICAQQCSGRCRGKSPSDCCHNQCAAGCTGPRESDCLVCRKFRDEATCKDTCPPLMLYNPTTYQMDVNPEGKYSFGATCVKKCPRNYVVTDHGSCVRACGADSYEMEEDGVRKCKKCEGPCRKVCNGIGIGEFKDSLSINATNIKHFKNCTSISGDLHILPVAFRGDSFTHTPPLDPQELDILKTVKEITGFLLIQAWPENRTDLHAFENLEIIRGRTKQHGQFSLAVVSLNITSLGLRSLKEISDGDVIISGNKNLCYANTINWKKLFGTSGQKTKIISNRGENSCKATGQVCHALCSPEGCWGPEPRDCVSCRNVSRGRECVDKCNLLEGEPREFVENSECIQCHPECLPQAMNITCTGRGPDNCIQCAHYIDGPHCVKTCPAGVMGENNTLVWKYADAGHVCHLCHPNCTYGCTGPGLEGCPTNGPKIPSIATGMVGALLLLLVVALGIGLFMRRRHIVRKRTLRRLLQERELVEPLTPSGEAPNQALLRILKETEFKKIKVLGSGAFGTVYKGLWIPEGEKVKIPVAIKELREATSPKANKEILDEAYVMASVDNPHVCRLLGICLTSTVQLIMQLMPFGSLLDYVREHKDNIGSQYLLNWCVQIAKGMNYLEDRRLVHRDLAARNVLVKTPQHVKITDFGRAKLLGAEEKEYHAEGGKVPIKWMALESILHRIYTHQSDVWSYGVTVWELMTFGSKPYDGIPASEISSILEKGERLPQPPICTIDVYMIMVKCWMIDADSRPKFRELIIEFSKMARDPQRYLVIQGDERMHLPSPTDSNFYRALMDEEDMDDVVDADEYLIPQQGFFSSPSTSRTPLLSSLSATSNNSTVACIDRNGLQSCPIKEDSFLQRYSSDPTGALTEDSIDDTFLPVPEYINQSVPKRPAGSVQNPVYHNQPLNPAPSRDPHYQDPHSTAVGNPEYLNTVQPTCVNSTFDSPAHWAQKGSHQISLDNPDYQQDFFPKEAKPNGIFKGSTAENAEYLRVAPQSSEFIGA
experiment-summary: TR-FRET probe displacement assay, EGFR triple mutant
assay-setup: T790M 1.25 nM, probe 100 nM, 30 mins room temperature
measured-quantity: IC50

Examples with their reported IC50 follow.
> print(dat)
                                   compound  recorded.measurement
1  C#Cc1cc(-n2cc(C)cn2)nc2nc(Nc3ccc(N(C)CCN(C)C)cc3)ncc12               < 20 nM
2  C#Cc1cc(NC(=O)OC2CCCC2)nc2nc(Nc3ccc(N4CCN(C)CC4)cc3)ncc12        100 to 1000 nM
3  C#Cc1cc(NC(=O)NC2CCCC2)nc2nc(Nc3ccc(N(C)C(=O)CN(C)C)cc3)ncc12               < 20 nM

Exercise: What value of measured IC50 is listed for C#Cc1cc(N2CC(C(C)C)OC2=O)nc2nc(Nc3ccc(N4CCN(C)CC4)cc3)ncc12 (centres unmarked) ?
Key: 20 to 100 nM

Exercise: Any idea what IC50 was measured for `C#Cc1cc(NC(=O)NC2CCCC2)nc2nc(Nc3ccc(OC4CN(C)C4)cc3)ncc12` ?
Key: < 20 nM

* * *

Catalogue of IC50 readings, one per entry.
system-name: Phospho-EGFR (Tyr1068) in A431 cells (Homo sapiens, UniProt P00533)
Construct: endogenous in cells
experiment-summary: HTRF pEGFR/total EGFR assay in A431 cells (EGF stimulated)
assay-setup: compound 2.5 hours then 100 ng/ml EGF 30 mins, ratio pEGFR/total EGFR

Completed entries (count: 4):
> print(dat)
                            smiles.notation  recorded.measurement
1  C#Cc1cc(NC(=O)Nc2ncc[nH]2)nc2nc(Nc3ccc(N4CCN(C)CC4)cc3)ncc12                > 3 µM
2  C#Cc1cc(NC(=O)NC2CCCC2)nc2nc(Nc3cccc(CN4CC(CS(C)(=O)=O)C4)c3)ncc12             1 to 3 µM
3  C#Cc1c(C)c(NC(=O)NC2CCCC2)nc2nc(Nc3ccc(N4CCN(C)CC4)cc3)ncc12                > 3 µM
4  C#Cc1cc(OCCc2ccccc2)nc2nc(Nc3ccc(N4CCN(C)CC4)cc3)ncc12                > 3 µM

Exercise: IC50 for `C#Cc1cc(NC(=O)NC2CCCC2)nc2nc(Nc3ccc(S(=O)(=O)N(C)C)cc3)ncc12` ?
Key: > 3 µM

Exercise: Which IC50 reading was recorded for the compound `C#Cc1cc(-n2cccc2)nc2nc(Nc3ccc(N4CCN(C)CC4)cc3)ncc12` ?
Key: > 3 µM

Exercise: // lookup IC50 for `C#Cc1cc(NC(=O)Cc2ccccc2)nc2nc(Nc3ccc(N4CCN(C)CC4)cc3)ncc12`
Key: > 3 µM

Exercise: Data request, read-out IC50, for `C#Cc1cc(OC2CC2)nc2nc(Nc3ccc(N4CCN(C)CC4)cc3)ncc12`
Key: > 3 µM

Exercise: Fill in the blank: the reported IC50 of `C#Cc1cc(NC(=O)NC2COC2)nc2nc(Nc3ccc(N4CCN(C)CC4)cc3)ncc12` is ____.
Key: > 3 µM

Exercise: I am curious: what IC50 value has been reported for `C#Cc1c(C)c(OCC2CCCC2)nc2nc(Nc3ccc(N4CCN(C)CC4)cc3)ncc12` ?
Key: > 3 µM

Exercise: Endpoint output: IC50 of `C#Cc1cc(N2C(=O)N(C)CC23CCCC3)nc2nc(Nc3ccc(N4CCOCC4)cc3)ncc12` . Value?
Key: 1 to 3 µM

Exercise: What IC50 value was documented for this compound, `C#Cc1cc(N2C(=O)NCC23CCCC3)nc2nc(Nc3ccc(N4CCN(C5COC5)CC4)cc3)ncc12` ?
Key: 1 to 3 µM

* * *

system-name: Phospho-EGFR (Tyr1068) in A431 cells (Homo sapiens)
Construct: endogenous in cells; host or cells: A431
experiment-summary: HTRF pEGFR/total EGFR assay in A431 cells (EGF stimulated)
Format: cell-based
assay-setup: compound 2.5 hours then 100 ng/ml EGF 30 mins, ratio pEGFR/total EGFR
measured-quantity: IC50

Examples from the recorded data:
> print(dat)
                                   molecule  recorded.measurement
1  C#Cc1cc(N2C(=O)NCC2C2CCCC2)nc2nc(Nc3ccc(N4CCN(C)CC4)cc3)ncc12 (centres unmarked) [Example 124]                > 3 µM
2  C#Cc1cc(-n2cc(C)cn2)nc2nc(Nc3ccc(N(C)CCN(C)C)cc3)ncc12 [Example 34]                > 3 µM
3  C#Cc1cc(NC(=O)NC2CCOC2)nc2nc(Nc3ccc(N4CCN(C)CC4)cc3)ncc12 (centres unmarked) [Example 42]                > 3 µM
4  C#Cc1cc(OC)nc2nc(Nc3ccc(N4CCN(C)CC4)c(N(C)C)c3)ncc12 [Example 5]                > 3 µM
5  C#Cc1cc(NC(=O)N2Cc3ccccc3C2)nc2nc(Nc3ccc(N4CCN(C)CC4)cc3)ncc12 [Example 58]                > 3 µM

Exercise: Name the reported IC50 value associated with the molecule C#Cc1cc(NC(=O)NCC2COC2)nc2nc(Nc3ccc(N4CCN(C)CC4)cc3)ncc12 [Example 55]
Key: > 3 µM

Exercise: For the molecule shown here, C#Cc1cc(NC(=O)NC2CCCC2)nc2nc(Nc3ccc(N4CCN(C)CC4)c(NCC4CCC4)c3)ncc12 [Example 63] , give the reported IC50.
Key: < 0.5 µM

Exercise: Field request: IC50 | item: C#Cc1cc(Nc2nccn2C)nc2nc(Nc3ccc(N4CCN(C)CC4)cc3)ncc12 [Example 26]
Key: > 3 µM

Exercise: Look at this molecule and give its reported IC50. C#Cc1cc(NC(=O)OC2CCCC2)nc2nc(Nc3ccc(N4CCN(C)CC4)cc3)ncc12 [Example 65]
Key: > 3 µM

Exercise: What does the record list as IC50 for C#Cc1cc(NC(C)=O)nc2nc(Nc3ccc(N(C)CCN(C)C)cc3)ncc12 [Example 28] ?
Key: > 3 µM

Exercise: Return reported IC50; argument: C#Cc1cc(N2C(=O)N(C)CC23CCCC3)nc2nc(Nc3ccc(S(=O)(=O)N(C)C)cc3)ncc12 [Example 109]
Key: 1 to 3 µM

Exercise: I'd like to know its IC50. The molecule in question is C#Cc1cc(NC(=O)NCc2ccno2)nc2nc(Nc3ccc(N4CCN(C)CC4)cc3)ncc12 [Example 47]
Key: > 3 µM

* * *

# pIC50 annotations
system-name: Phospho-EGFR (Tyr1068) in A431 cells (Homo sapiens, UniProt P00533)
Construct: endogenous in cells
experiment-summary: HTRF pEGFR/total EGFR assay in A431 cells (EGF stimulated)
assay-setup: compound 2.5 hours then 100 ng/ml EGF 30 mins, ratio pEGFR/total EGFR
pIC50: −log10 of the molar value.

> print(dat)
                                   compound  measured.quantity  recorded.measurement
1  C#Cc1cc(NC(=O)N(C)C2CCCC2)nc2nc(Nc3ccc(N4CCN(C)CC4)cc3)ncc12 [Example 74]              pIC50                < 5.52
2  C#Cc1cc(NC(=O)NC2CCCC2)nc2nc(Nc3ccc(N4CCN(C)CC4)cc3)ncc12 [Example 38]              pIC50                > 6.30
3  C#Cc1cc(N2CCCC2=O)nc2nc(Nc3ccc(N4CCN(C)CC4)cc3)ncc12 [Example 31]              pIC50                < 5.52
4  C#Cc1cc(N2C(=O)NCC23CCCC3)nc2nc(Nc3ccc(N(C)C(=O)CN(C)C)cc3)ncc12 [Example 94]              pIC50          5.52 to 6.00
5  C#Cc1cc(NC(=O)N[C@H]2CCN(C(C)=O)C2)nc2nc(Nc3ccc(N4CCN(C)CC4)cc3)ncc12 [Example 53]              pIC50                < 5.52

Exercise: Would you kindly share the measured pIC50 for C#Cc1cc(N2CCOC2=O)nc2nc(Nc3ccc(N4CCN(C)CC4)cc3)ncc12 [Example 71] ?
Key: 5.52 to 6.00

Exercise: Need pIC50 of C#Cc1cc(N2C(=O)NC[C@H]2C(C)C)nc2nc(Nc3ccc(N4CCN(C)CC4)cc3)ncc12 [Example 100] , thanks.
Key: < 5.52
